For each of the compounds below, state its logD.
protocol details: Distribution co-efficient, log D of the compound
condition details: octanol/water

Reported logD for `Cc1cn([C@H]2CCCN(S(=O)(=O)c3ccc(O)c(Oc4ccc(Cl)cc4)c3)C2)c(=O)[nH]c1=O` : what is it?
2.1

Another compound to look at: `Cc1cn([C@H]2CCCN(S(=O)(=O)c3ccc(O)c(Oc4ccccc4)c3)C2)c(=O)[nH]c1=O`
1.5

Another compound to look at: `Cc1cn([C@H]2CCCN(S(=O)(=O)c3ccc(C(=O)O)c(Oc4cccc(Cl)c4)c3)C2)c(=O)[nH]c1=O`
-1.3

Another compound to look at: `Cc1cn([C@H]2CCCN(S(=O)(=O)c3ccc(C(N)=O)c(Oc4cccc(Cl)c4)c3)C2)c(=O)[nH]c1=O`
2

Another compound to look at: `Cc1cn([C@H]2CCCN(S(=O)(=O)c3ccc(O)c(Oc4cccc(Br)c4)c3)C2)c(=O)[nH]c1=O`
2.3

Another compound to look at: `Cc1cn([C@H]2CCCN(S(=O)(=O)c3ccc(C#N)c(Oc4cccc(Cl)c4)c3)C2)c(=O)[nH]c1=O`
1

Another compound to look at: `Cc1cn([C@H]2CCCN(S(=O)(=O)c3ccc(O)c(Oc4cccc(Cl)c4)c3)C2)c(=O)[nH]c1=O`
2.1

Another compound to look at: `Cc1cn([C@H]2CCCN(S(=O)(=O)c3ccc(O)c(Oc4cccc(C(F)(F)F)c4)c3)C2)c(=O)[nH]c1=O`
2.3

Another compound to look at: `Cc1cn([C@H]2CCCN(S(=O)(=O)c3ccc(O)c(Oc4cccc(F)c4)c3)C2)c(=O)[nH]c1=O`
1.6

Another compound to look at: `Cc1cc(Oc2cc(S(=O)(=O)N3CCC[C@H](n4cc(C)c(=O)[nH]c4=O)C3)ccc2O)ccc1Cl`
2.4

Another compound to look at: `Cc1cn([C@H]2CCCN(S(=O)(=O)c3ccc(C(=O)O)c(Oc4ccc(Cl)c(Cl)c4)c3)C2)c(=O)[nH]c1=O`
-0.9

Another compound to look at: `Cc1cccc(Oc2cc(S(=O)(=O)N3CCC[C@H](n4cc(C)c(=O)[nH]c4=O)C3)ccc2C(=O)O)c1`
-1.6

Another compound to look at: `Cc1cn([C@H]2CCCN(S(=O)(=O)c3cccc(Oc4ccc(Cl)c(Cl)c4)c3)C2)c(=O)[nH]c1=O`
> 3.5

Source: ChEMBL document CHEMBL2331361
